As shown below, each of these sequences has a reported # Sites (off-target integration sites detected) value.
# System: off-target genomic sites
# measurement-description: Off-target oligo insertion based assay in HEK293_Cas9 cells, dgRNAs and sgRNAs (Tables 23, 24)
# Format: cell-based, human
# run-conditions: Table 23; TTR dgRNAs in HekCas9 cells, oligo insertion based assay
// return just the number, without any unit appended

Example entries and their recorded answers appear below.
UCCACUCAUUCUUGGCAGGA (tested as dual guide RNA, chemistry not given here) [CR005298]; 0
UCUAGAACUUUGACCAUCAG (tested as dual guide RNA, chemistry not given here) [CR003345]; 0
CUUCUCUACACCCAGGGCAC (tested as dual guide RNA, chemistry not given here) [CR003342]; 0

Could you now consider this next sequence?
Identify the reported # Sites (off-target integration sites detected) for the following entry. AGACACCAAAUCUUACUGGA (tested as dual guide RNA, chemistry not given here) [CR003367]
1

* * *

# Test system: TTR
# measurement-description: TTR editing in primary human hepatocytes electroporated with Spy Cas9 protein loaded with dgRNAs (Table 7)
# Assay type: cell-based
# run-conditions: dgRNA electroporated with Spy Cas9 protein (RNP)
metric-name: Avg % Insert (%)
Output spec: scalar in %, unitless text.

Example entries and their recorded answers appear below.
AGUGAGUCUGGAGAGCUGCA (tested as dual guide RNA, chemistry not given here) [CR003359]; 56.33
UUCUUUGGCAACUUACCCAG (tested as dual guide RNA, chemistry not given here) [CR003357]; 35.47
GUGAGUCUGGAGAGCUGCAU (tested as dual guide RNA, chemistry not given here) [CR003360]; 31.67
CCCCUACUCCUAUUCCACCA (tested as dual guide RNA, chemistry not given here) [CR003385]; 38.43
AGCCGUGGUGGAAUAGGAGU (tested as dual guide RNA, chemistry not given here) [CR005299]; 8.30
CUGCUCCUCCUCUGCCUUGC (tested as dual guide RNA, chemistry not given here) [CR003335]; 69.70
GCAUGGGCUCACAACUGAGG (tested as dual guide RNA, chemistry not given here) [CR003362]; 6.87
ACCUCUGCAUGCUCAUGGAA (tested as dual guide RNA, chemistry not given here) [CR003371]; 14.47

Identify the reported Avg % Insert for the following entry. CCCAGAGGCAAAUGGCUCCC (tested as dual guide RNA, chemistry not given here) [CR003355]
10.60

Identify the reported Avg % Insert for the following entry. CCAGUCCAGCAAGGCAGAGG (tested as dual guide RNA, chemistry not given here) [CR003337]
53.23

Identify the reported Avg % Insert for the following entry. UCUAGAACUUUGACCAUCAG (tested as dual guide RNA, chemistry not given here) [CR003345]
34.53

Identify the reported Avg % Insert for the following entry. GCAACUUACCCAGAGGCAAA (tested as dual guide RNA, chemistry not given here) [CR003356]
7.80

Identify the reported Avg % Insert for the following entry. CUGAGGAGGAAUUUGUAGAA (tested as dual guide RNA, chemistry not given here) [CR003364]
16.93

Identify the reported Avg % Insert for the following entry. GCGGCAAUGGUGUAGCGGCG (tested as dual guide RNA, chemistry not given here) [CR003377]
10.13

Identify the reported Avg % Insert for the following entry. AAGUGCCUUCCAGUAAGAUU (tested as dual guide RNA, chemistry not given here) [CR003368]
27.63

Identify the reported Avg % Insert for the following entry. UGAAUCCAAGUGUCCUCUGA (tested as dual guide RNA, chemistry not given here) [CR005303]
53.07

Identify the reported Avg % Insert for the following entry. CGGCAAUGGUGUAGCGGCGG (tested as dual guide RNA, chemistry not given here) [CR003376]
1.87

Identify the reported Avg % Insert for the following entry. GGGGCUCAGCAGGGCGGCAA (tested as dual guide RNA, chemistry not given here) [CR003381]
5.83

Identify the reported Avg % Insert for the following entry. CUGGUAUUUGUGUCUGAGGC (tested as dual guide RNA, chemistry not given here) [CR003341]
7.03

Identify the reported Avg % Insert for the following entry. UCACAGAAACACUCACCGUA (tested as dual guide RNA, chemistry not given here) [CR005300]
53.47

Identify the reported Avg % Insert for the following entry. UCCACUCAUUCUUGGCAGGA (tested as dual guide RNA, chemistry not given here) [CR005298]
22.37

Identify the reported Avg % Insert for the following entry. AUGCAGCUCUCCAGACUCAC (tested as dual guide RNA, chemistry not given here) [CR003358]
4.93

Identify the reported Avg % Insert for the following entry. CCUCUGCAUGCUCAUGGAAU (tested as dual guide RNA, chemistry not given here) [CR003370]
14.43

Identify the reported Avg % Insert for the following entry. AUAGGAGUAGGGGCUCAGCA (tested as dual guide RNA, chemistry not given here) [CR003383]
3.37

Identify the reported Avg % Insert for the following entry. CCGUGGUGGAAUAGGAGUAG (tested as dual guide RNA, chemistry not given here) [CR003386]
4.47

Identify the reported Avg % Insert for the following entry. ACGUGUCUUCUCUACACCCA (tested as dual guide RNA, chemistry not given here) [CR005302]
60.10

Identify the reported Avg % Insert for the following entry. UUUGACCAUCAGAGGACACU (tested as dual guide RNA, chemistry not given here) [CR003344]
33.30

Identify the reported Avg % Insert for the following entry. GAAAGGCUGCUGAUGACACC (tested as dual guide RNA, chemistry not given here) [CR003352]
25.63

Each recorded value in this set is attributed to patent US11795460B2.
